This collection of values is drawn from PubChem BioAssay (NCI).

Some compounds, each annotated with its measured growth.
- Tested on: MCF7 breast
- assay_protocol: NCI-60 one-dose screen, 48 h (100 = growth as untreated, 0 = no growth, -100 = all killed)
- recorded_conditions: 10 µM unless noted
The panel holds about 83,000 compounds, 20% with a hit somewhere; the sample as a whole holds those more often.
# output: bare number, implied unit %

These recorded examples may help you get a feel for the data.
O=S(=O)(Oc1ccc(-c2nnc(Nc3ccccc3)s2)cc1)C(F)(F)C(F)(F)C(F)(F)C(F)(F)C(F)(F)C(F)(F)F
90.7
CCOC(=O)c1c(Nc2ccccc2)nn2c(-c3ccccc3)ccnc12
91.8
O=C(Nc1ccc2c(ccn2Cc2ccccn2)c1)c1ccnnc1
102

Entry Nc1ncc(-c2ccc3ncnc(N4CCc5cc(F)c(F)cc54)c3c2)cn1 : reported growth = ?
14.4

----------
- System: BT-549 breast
- assay_protocol: NCI-60 one-dose screen, 48 h (100 = growth as untreated, 0 = no growth, -100 = all killed)
- recorded_conditions: 10 µM unless noted
About 83,000 compounds went through this panel and 20% of them were active in at least one assay; those are over-represented in the sample as a whole.
experimental_endpoint: growth (%)
# output: bare number, implied unit %

These recorded examples may help you get a feel for the data.
Cc1cccc(/C=C/C(=O)Nc2ncc(Cc3cccc(C)c3)s2)c1
66.6
Cc1ccc(NC(=O)N[C@@H](Cc2cc(F)cc(F)c2)C(=O)NC2C(=O)N3C[C@H](O)C[C@H]3C(=O)N3CCCC[C@H]3C(=O)N[C@@H](CO)C(=O)N3C[C@H](C)C[C@H]3C(=O)O[C@H]2C)c(F)c1 (some centres undefined)
43.5
C=CCN(C)S(=O)(=O)/N=C1\NC(=O)NC1=C(Cl)Cl
89.1
O=C(NNc1nc2cc(F)ccc2n2c(CN3CCCC3)ccc12)c1cnccn1
24.1
COc1ccc(C(=O)c2c(N)c(C#N)cn2-c2ccccc2OC)cc1
64.5
Cn1ccnc1C(=O)/C=C/c1ccc(CNC(=O)c2ccc(S(F)(F)(F)(F)F)cc2)cc1
35.6
CN1CCN(Cc2ccc(NC(=O)c3cncc(C#Cc4cnc5ccc(NCCCO)nn45)c3)cc2C(F)(F)F)CC1
-81.5
Cc1ccc(-c2cc3nc(C(Cl)Cl)nc(-c4cccs4)n3n2)cc1
97.8
CS(=O)(=O)c1ccc(-n2cc(/C=N/O)c(-c3ccccc3)n2)cc1
60.7
COc1cccc2cc(-c3cc4ccccc4[nH]3)/c(=N\NC(=O)c3ccc(Cl)cc3)oc12
58.3

Entry CCOC(=O)c1c(Nc2ccccc2)nn2c(-c3ccc(OC)cc3)ccnc12 : reported growth = ?
127

Try this compound next: COc1ccc(/C=C(/C)c2ccc3ccc(OC)cc3[o+]2)c(O)c1
87.9

Try this compound next: NC(N)=Nc1ccc(Nc2cccc(Nc3ccc(Cl)c(C(F)(F)F)c3)c2)cn1
67.8

Try this compound next: C#CCOc1ccc(/C=N\Nc2nc(-c3ccc(C)cc3)cs2)cc1OC
80.7

----------
- Tested on: SK-MEL-5 melanoma
- assay_protocol: NCI-60 one-dose screen, 48 h
- recorded_conditions: 10 µM unless noted
Compounds without any hit were thinned out: in the full panel of roughly 83,000, 20% have a hit. Activity calls are given as the source filed them. How the source made its calls: active means growth percent below 10; inactive means the rest.
Please answer using one outcome listed in 1 (yes) = active, 0 (no) = inactive

Take a look at these entries with their results.
NS(=O)(=O)c1ccc(Nc2cc(-c3ccccc3)nc(SCC(=O)c3ccccc3)n2)cc1
0 (no)
COc1cc2oc(-c3cccc(C(=O)N[C@@H](CC(C)C)C(=O)OC(C)(C)C)c3)cc(=O)c2c(OC)c1OC
0 (no)
COc1cc(-c2nn(C(C)(C)C)cc2-c2ccnc(NCCCNS(=O)(=O)c3ccc(Cl)cc3)n2)ccc1Cl
0 (no)
Cn1ccnc1C(=O)/C=C/c1ccc(NC(=O)c2ccc(F)cc2)cc1
0 (no)
COc1cc(-c2nc3sccn3c2-c2ccnc(S(C)(=O)=O)n2)ccc1F
0 (no)
COc1cc2oc(-c3cccc(NC(=O)c4cc(N)ccc4Cl)c3)cc(=O)c2c(OC)c1OC
0 (no)
COc1cc2c(cc1OC)C(Sc1ccc(C)cc1)c1c(nc(N)c(C#N)c1N)O2 (stereo not drawn)
1 (yes)
COC(=O)C1(C)CCC[C@]2(C)[C@H]3C[C@H]4C(C(C)C)=C[C@]3(CC[C@@H]12)[C@H]1[C@@H]4[C@@H](OC(=O)c2ccco2)CC[C@@H]1OC(=O)c1ccco1 (stereo partly drawn)
0 (no)

Recorded call for O=C(CSc1nnc(-c2ccc(Cl)cc2)n1-c1ccccc1)Nc1ccc(Br)cc1 ?
0 (no)

Try this molecule next: N#Cc1c(-c2cccs2)cc(-c2cnccn2)nc1SCC(=O)Nc1ccc(Br)cc1
0 (no)

Try this molecule next: C#Cc1nc(/C=C/C(=O)c2nccn2C)cs1
1 (yes)

Try this molecule next: Cc1ccc(CSc2nc(-c3ccc(Cl)cc3)c(C#N)c(N3CCOCC3)n2)cc1
0 (no)

Try this molecule next: Oc1cccc2ccc(-c3nnc(SCc4ccc(O)c5ncccc45)o3)nc12
1 (yes)

Try this molecule next: CC1(C)[C@@H](O)CC[C@]2(C)[C@H]3CC[C@@H]4[C@H]5[C@H](C(=O)/C=C\c6ccc([N+](=O)[O-])cc6)CC[C@]5(O)CC[C@@]4(C)[C@]3(C)CC[C@@H]12
0 (no)
